Assay: Transmembrane penetration analysis
Format: in vitro ADME, swine
Details: Working Example 4 (O/W gel); 0.25 mL gel admixed with 5.5 mL saline
Reported True Value Concentration (completely penetrated active agent) values for a set of molecules
READOUT_KIND: True Value Concentration (completely penetrated active agent) (mg/mL)

>>> test_value("C[C@@H]1[C@H](O)[C@@H](C)/C=C/C=C/CC/C=C/C=C/C=C/C=C/C(O[C@H]2O[C@H](C)[C@@H](O)[C@H](N)[C@@H]2O)CC2O[C@](O)(CC(O)C(O)CCC(O)CC(O)CC(O)CC(=O)O[C@H]1C)CC(O)C2C(=O)O (stereo partly shown)")
0.06448
>>> test_value("Nc1nc2c(ncn2COCCO)c(=O)[nH]1")
0.1375
>>> test_value("Clc1ccc(COC(Cn2ccnc2)c2ccc(Cl)cc2Cl)c(Cl)c1 (stereo not shown) [Miconazole nitrate(MIC), Miconazole nitrate]")
0.1401
>>> test_value("Cc1ncc([N+](=O)[O-])n1CCO")
0.1433

====

# key: entry, value: logP
Assay: Solvent/water partition coefficient analysis (1-Octanol/water)
Type: physicochemical
Details: 1-octanol/water; logarithm of the ratio of 1-Octanol to water; read-out: Partition coefficient [log Poct/wat]
READOUT_KIND: logP

>>> test_value("Nc1nc2c(ncn2COCCO)c(=O)[nH]1 [Acyclovir (ACY), Acyclovir]")
-1.58
>>> test_value("Cc1ncc([N+](=O)[O-])n1CCO [Metronidazole (MTZ), Metronidazole]")
0.05

====

Assay: Solvent/water partition coefficient analysis (1-Octanol/water)
Format: physicochemical
Settings: logarithm of the ratio of 1-Octanol to water; read-out: Partition coefficient [log Poct/wat]
Some compounds, each annotated with its measured logP.
READOUT_KIND: logP

>>> test_value("O=c1ccc2ccc3occc3c2o1")
2.49
>>> test_value("CC(C)[C@]12O[C@H]1[C@@H]1O[C@]13[C@]1(O[C@H]1C[C@H]1C4=C(CC[C@@]13C)C(=O)OC4)[C@@H]2O [Triptolide]")
1.73
>>> test_value("O=C(O)c1cc(O)c(O)c(O)c1")
0.27

====

Item-by-item account of Concentration in lower container
Experiment: Transmembrane penetration analysis
Type: in vitro ADME, swine
Conditions: Working Example 4 (O/W gel); 21 hr
READOUT_KIND: Concentration in lower container (ng/mL)

>>> test_value("C[C@@H]1[C@H](O)[C@@H](C)/C=C/C=C/CC/C=C/C=C/C=C/C=C/C(O[C@H]2O[C@H](C)[C@@H](O)[C@H](N)[C@@H]2O)CC2O[C@](O)(CC(O)C(O)CCC(O)CC(O)CC(O)CC(=O)O[C@H]1C)CC(O)C2C(=O)O (stereo partly shown) [Nystatin (NYS), Nystatin]")
1930
>>> test_value("Nc1nc2c(ncn2COCCO)c(=O)[nH]1 [Acyclovir (ACY), Acyclovir]")
2510
>>> test_value("Cc1ncc([N+](=O)[O-])n1CCO [Metronidazole (MTZ), Metronidazole]")
6510
>>> test_value("Clc1ccc(COC(Cn2ccnc2)c2ccc(Cl)cc2Cl)c(Cl)c1 (stereo not shown) [Miconazole nitrate(MIC), Miconazole nitrate]")
7060

====

Assay: Solvent/water partition coefficient analysis (1-Octanol/water)
Type: physicochemical
# 1-Octanol/H2O ratio values compiled below
READOUT_KIND: 1-Octanol/H2O ratio

>>> test_value("CC(C)[C@]12O[C@H]1[C@@H]1O[C@]13[C@]1(O[C@H]1C[C@H]1C4=C(CC[C@@]13C)C(=O)OC4)[C@@H]2O [Triptolide]")
54.13
>>> test_value("C[C@@H]1[C@H](O)[C@@H](C)/C=C/C=C/CC/C=C/C=C/C=C/C=C/C(O[C@H]2O[C@H](C)[C@@H](O)[C@H](N)[C@@H]2O)CC2O[C@](O)(CC(O)C(O)CCC(O)CC(O)CC(O)CC(=O)O[C@H]1C)CC(O)C2C(=O)O (some centres unmarked)")
1.98
>>> test_value("O=C(O)c1cc(O)c(O)c(O)c1")
1.859
>>> test_value("O=c1ccc2ccc3occc3c2o1")
306.9

====

Assay: Transmembrane penetration analysis
Format: in vitro ADME, swine
Details: Working Example 4 (O/W gel); 26 hr
READOUT_KIND: Concentration in lower container (µg/mL)

>>> test_value("Nc1nc2c(ncn2COCCO)c(=O)[nH]1 [Acyclovir (ACY), Acyclovir]")
83.4
>>> test_value("C[C@@H]1[C@H](O)[C@@H](C)/C=C/C=C/CC/C=C/C=C/C=C/C=C/C(O[C@H]2O[C@H](C)[C@@H](O)[C@H](N)[C@@H]2O)CC2O[C@](O)(CC(O)C(O)CCC(O)CC(O)CC(O)CC(=O)O[C@H]1C)CC(O)C2C(=O)O (stereo partly shown) [Nystatin (NYS), Nystatin]")
30.07
>>> test_value("Clc1ccc(COC(Cn2ccnc2)c2ccc(Cl)cc2Cl)c(Cl)c1 (stereo not shown) [Miconazole nitrate(MIC), Miconazole nitrate]")
82.72
>>> test_value("Cc1ncc([N+](=O)[O-])n1CCO [Metronidazole (MTZ), Metronidazole]")
81.07

====

Test: Transmembrane penetration analysis
Format: in vitro ADME, swine
Conditions: Working Example 4 (O/W gel); 24 hr
READOUT_KIND: Concentration in lower container (µg/mL)

>>> test_value("Nc1nc2c(ncn2COCCO)c(=O)[nH]1")
60.5
>>> test_value("Clc1ccc(COC(Cn2ccnc2)c2ccc(Cl)cc2Cl)c(Cl)c1 (stereo not shown) [Miconazole nitrate(MIC), Miconazole nitrate]")
60.66
>>> test_value("Cc1ncc([N+](=O)[O-])n1CCO")
61.67
>>> test_value("C[C@@H]1[C@H](O)[C@@H](C)/C=C/C=C/CC/C=C/C=C/C=C/C=C/C(O[C@H]2O[C@H](C)[C@@H](O)[C@H](N)[C@@H]2O)CC2O[C@](O)(CC(O)C(O)CCC(O)CC(O)CC(O)CC(=O)O[C@H]1C)CC(O)C2C(=O)O (stereo partly shown)")
20.72
